- targetOrTestSystem: T1, human G-protein-coupled receptor family C group 5 member D (GPRC5D) (human, UniProt Q9NZD1 1-345)
- T1 construct: whole, on cells; also called human GPRC5D protein
- T1 sequence (Q9NZD1 whole entry): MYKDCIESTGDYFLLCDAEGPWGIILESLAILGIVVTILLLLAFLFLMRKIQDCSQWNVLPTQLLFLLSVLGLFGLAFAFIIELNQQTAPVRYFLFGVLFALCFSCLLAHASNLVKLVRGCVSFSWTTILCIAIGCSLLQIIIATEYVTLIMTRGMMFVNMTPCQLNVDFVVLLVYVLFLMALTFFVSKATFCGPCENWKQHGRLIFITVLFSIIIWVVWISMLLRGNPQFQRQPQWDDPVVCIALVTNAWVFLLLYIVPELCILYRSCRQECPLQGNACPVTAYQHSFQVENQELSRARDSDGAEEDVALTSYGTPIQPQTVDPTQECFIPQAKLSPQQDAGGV
- experimentNotes: FACS, CHO-K1/GPRC5D
resultType: LogEC50
Enter the number alone.

A selection of reference data follows.
binder	LogEC50
37-H1L2 (antibody, V domains shown, humanized 37B9C4, VH v1 x VL v2) VH: EVQLVESGGGLVQPGGSLRLSCAASGFTFSDYWMNWVRQAPGKGLEWVAEIRLKSNNYATHYAESVKGRFTISRDNAKNSLYLQMNSLRAEDTAVYYCARPLLWFRRYYAMDYWGQGTLVTVSS VL: DIQMTQSPSSLSASVGDRVTITCSASQGISNYLNWYQQKPGKTVKLLIYYTSSLHSGVPSRFSGSGSGTDYTLTISSLQPEDFATYYCQQYSKLPFTFGQGTKLEIK	0.35
37-H2L2 (antibody, V domains shown, humanized 37B9C4, VH v2 x VL v2) VH: EVQLVESGGGLVQPGGSLRLSCAASGFTFSDYWMNWVRQSPGKGLEWVAEIRLKSNNYATHYAESVKGRFTISRDNAKSSLYLQMNSLRAEDTAVYYCTRPLLWFRRYYAMDYWGQGTLVTVSS VL: DIQMTQSPSSLSASVGDRVTITCSASQGISNYLNWYQQKPGKTVKLLIYYTSSLHSGVPSRFSGSGSGTDYTLTISSLQPEDFATYYCQQYSKLPFTFGQGTKLEIK	0.345

Okay, next one:
Find the recorded LogEC50 belonging to 37-H2L1 (antibody, V domains shown, humanized 37B9C4, VH v2 x VL v1) VH: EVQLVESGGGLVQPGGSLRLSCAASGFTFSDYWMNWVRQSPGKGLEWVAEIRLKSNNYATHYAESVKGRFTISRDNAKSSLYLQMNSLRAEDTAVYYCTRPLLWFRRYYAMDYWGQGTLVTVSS VL: DIQMTQSPSSLSASVGDRVTITCSASQGISNYLNWYQQKPGKAPKLLIYYTSSLHSGVPSRFSGSGSGTDFTLTISSLQPEDFATYYCQQYSKLPFTFGQGTKLEIK and report it.
0.351
